- tested-on: T1, human TREM2 on the cell surface (human, UniProt Q9NZC2 19-230)
- T1 construct: also called surface TREM2; TREM2 expressed in HEK293-H6 cells
- T1 sequence: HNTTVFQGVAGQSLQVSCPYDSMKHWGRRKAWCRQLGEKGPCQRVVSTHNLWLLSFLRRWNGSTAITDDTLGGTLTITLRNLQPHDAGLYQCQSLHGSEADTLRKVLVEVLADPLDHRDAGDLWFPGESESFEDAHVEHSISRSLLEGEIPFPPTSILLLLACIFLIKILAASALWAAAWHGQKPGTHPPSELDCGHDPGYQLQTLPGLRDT
- method-summary: flow cytometry, dose-titrated binding to HEK293-H6 cells
measured-metric: pEC50
Remember, pEC50 is on a log scale: it is -log10 of the molar concentration.

In the examples that follow, each entry is paired with its recorded pEC50.
binder	measured-metric	value-observed
CL0020123-4 (antibody, V domains shown, Humanized variant of CL0020123 (hVH NGES/2 m, Vk graft); also called Clone CL0020123-4) VH: QVQLVQSGAEVKKPGASVKVSCKASGFSIEDFYIHWVRQAPGQGLEWMGWIDPENGESKYAPKFQGRATITADTSTSTAYMELSSLRSEDTAVYYCHADHGNYGSTMDYWGQGTLVTVSS VL: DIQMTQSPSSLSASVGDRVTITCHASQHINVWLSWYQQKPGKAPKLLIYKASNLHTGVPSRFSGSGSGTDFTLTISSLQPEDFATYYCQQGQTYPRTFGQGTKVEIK	pEC50	9.77
CL0020188-3 (antibody, V domains shown, Humanized variant of CL0020188 (hVH NG/graft, hVL TG/graft); also called Clone CL0020188-3) VH: EVQLVESGGGLVQPGGSLRLSCAASGFTFTDFYMSWVRQAPGKGLEWVSVIRNKANGYTAGYNPSVKGRFTISRDNSKNTLYLQMNSLRAEDTAVYYCARLTYGFDYWGQGTLVTVSS VL: DIVMTQTPLSLPVTPGEPASISCQSSKSLLHSTGKTYLNWYLQKPGQSPQLLIYWMSTRASGVPDRFSGSGSGTDFTLKISRVEAEDVGVYYCQQFLEYPFTFGQGTKVEIK	pEC50	9.19
CL0020188-8 (antibody, V domains shown, Humanized variant of CL0020188 (hVH NA/3 m, hVL TG/graft); also called Clone CL0020188-8) VH: EVQLVESGGGLVQPGGSLRLSCAGSGFTFTDFYMSWVRQAPGKGPEWLSVIRNKANAYTAGYNPSVKGRFTISRDNSKNTLYLQMNSLRAEDTAVYYCARLTYGFDYWGQGTLVTVSS VL: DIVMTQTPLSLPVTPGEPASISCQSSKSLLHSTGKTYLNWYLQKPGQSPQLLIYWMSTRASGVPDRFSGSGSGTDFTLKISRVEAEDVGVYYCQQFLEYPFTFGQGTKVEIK	pEC50	9.29
CL0020123-8 (antibody, V domains shown, Humanized variant of CL0020123 (hVH QGES/1 m, Vk graft); also called Clone CL0020123-8) VH: QVQLVQSGAEVKKPGASVKVSCKASGFSIEDFYIHWVRQAPGQGLEWMGWIDPEQGESKYAPKFQGRVTITADTSTSTAYMELSSLRSEDTAVYYCHADHGNYGSTMDYWGQGTLVTVSS VL: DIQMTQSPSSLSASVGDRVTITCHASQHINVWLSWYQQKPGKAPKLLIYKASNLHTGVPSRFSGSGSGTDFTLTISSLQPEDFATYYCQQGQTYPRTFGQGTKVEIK	pEC50	9.42
CL0020123-2 (antibody, V domains shown, Humanized variant of CL0020123 (hVH NGDS/1 m, Vk graft); also called Clone CL0020123-2) VH: QVQLVQSGAEVKKPGASVKVSCKASGFSIEDFYIHWVRQAPGQGLEWMGWIDPENGDSKYAPKFQGRVTITADTSTSTAYMELSSLRSEDTAVYYCHADHGNYGSTMDYWGQGTLVTVSS VL: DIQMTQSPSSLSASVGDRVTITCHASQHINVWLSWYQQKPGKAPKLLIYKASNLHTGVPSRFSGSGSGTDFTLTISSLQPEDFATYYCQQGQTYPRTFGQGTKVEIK	pEC50	9.64

Query: Input CL0020188-6 (antibody, V domains shown, Humanized variant of CL0020188 (hVH NA/3 m, hVL NG/graft); also called Clone CL0020188-6) VH: EVQLVESGGGLVQPGGSLRLSCAGSGFTFTDFYMSWVRQAPGKGPEWLSVIRNKANAYTAGYNPSVKGRFTISRDNSKNTLYLQMNSLRAEDTAVYYCARLTYGFDYWGQGTLVTVSS VL: DIVMTQTPLSLPVTPGEPASISCQSSKSLLHSNGKTYLNWYLQKPGQSPQLLIYWMSTRASGVPDRFSGSGSGTDFTLKISRVEAEDVGVYYCQQFLEYPFTFGQGTKVEIK , output reported pEC50.
Response: 9.51

Query: Input CL0020123-6 (antibody, V domains shown, Humanized variant of CL0020123 (hVH QGDS/1 m, Vk graft); also called Clone CL0020123-6) VH: QVQLVQSGAEVKKPGASVKVSCKASGFSIEDFYIHWVRQAPGQGLEWMGWIDPEQGDSKYAPKFQGRVTITADTSTSTAYMELSSLRSEDTAVYYCHADHGNYGSTMDYWGQGTLVTVSS VL: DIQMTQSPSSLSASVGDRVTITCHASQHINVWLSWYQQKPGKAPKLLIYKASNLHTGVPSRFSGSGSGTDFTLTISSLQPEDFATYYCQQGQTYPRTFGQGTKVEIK , output reported pEC50.
Response: 9.54

Query: Input CL0020188-4 (antibody, V domains shown, Humanized variant of CL0020188 (hVH NG/3 m, hVL TG/graft); also called Clone CL0020188-4) VH: EVQLVESGGGLVQPGGSLRLSCAGSGFTFTDFYMSWVRQAPGKGPEWLSVIRNKANGYTAGYNPSVKGRFTISRDNSKNTLYLQMNSLRAEDTAVYYCARLTYGFDYWGQGTLVTVSS VL: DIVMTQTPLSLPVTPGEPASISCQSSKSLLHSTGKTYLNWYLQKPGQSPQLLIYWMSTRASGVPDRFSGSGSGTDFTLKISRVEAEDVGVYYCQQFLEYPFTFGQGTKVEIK , output reported pEC50.
Response: 9.36
